system: CAKI-1 renal; assay: NCI-60 one-dose screen, 48 h (100 = growth as untreated, 0 = no growth, -100 = all killed); details: 10 µM unless noted
This is part of a sample that, as a whole, favours compounds with a hit. Of some 83,000 tested, about 20% had one in any assay.
MEASURED QUANTITY: growth (%)
Respond with the bare value in %.

# COMPOUND, growth [%]
measured = [
    ("N#C/C(=C/C=C/c1ccccc1)S(=O)c1ccccc1 (stereo unspecified)", -25.6),
    ("O=C1/C(=C/c2cccc([N+](=O)[O-])c2)COc2ccc(O)c(O)c21", -67.5),
    ("CCN1C(=O)N(CC)C2C1NN=c1s/c(=C3\\C(=O)N(C)c4ccccc43)c(=O)n12 (stereo unspecified)", 42.2),
    ("O=C(Nc1ccc2[nH]ncc2c1)c1csc(Nc2ccccc2)n1", 36.5),
]

Qu. Lab note: need growth with CAKI-1 renal for entry Oc1c(Cl)cc(Cl)c2ccc(CN3CCNCC3)nc12 , please look it up.
Ans. 21.8

Qu. Please give the result for COc1ccc(/C=C/C(=O)c2ccc(-n3cc(CN4CCN(c5cc6c(cc5F)c(=O)c(C(=O)O)cn6C5CC5)CC4)nn3)cc2)cc1 too.
Ans. 67.8
